Experiment notes: Apparent permeability from basolateral to apical side of human Caco2 cells at 4 mM up to 120 mins by HPLC analysis
Format: ADME, cell-based
Assay conditions: Caco-2
Readout type: Papp B→A at 2 h, 4000 µM (×10⁻⁶ cm/s)
Expressed in ×10⁻⁶ cm/s, but write only the number.

Any idea what its Papp B→A at 2 h, 4000 µM is? The compound is CSCC[C@H](NC(=O)C1SC(C)(C)SC1C(=O)O)C(=O)O (stereo partly specified)
5.05

Any idea what its Papp B→A at 2 h, 4000 µM is? The compound is CC[C@H](C)[C@H](NC(=O)C1SC(C)(C)SC1C(=O)O)C(=O)O (stereo partly specified)
4.91

Any idea what its Papp B→A at 2 h, 4000 µM is? The compound is CC1(C)SC(C(=O)O)C(C(=O)O)S1 (stereo unspecified)
4.68

Any idea what its Papp B→A at 2 h, 4000 µM is? The compound is CC(C)(S)C(N)C(=O)O (racemic)
11.5

Any idea what its Papp B→A at 2 h, 4000 µM is? The compound is O=C([O-])C(S)C(S)C(=O)[O-].[Na+].[Na+] (stereo unspecified)
10

Any idea what its Papp B→A at 2 h, 4000 µM is? The compound is CC1(C)SC(C(=O)O)C(C(=O)N[C@@H](CC(N)=O)C(=O)O)S1 (stereo partly specified)
5.15

----------
Provide the reported Activity of each item.
System: Brain
Experiment notes: Toxicity in mouse assessed as effect on manganese level in brain per gram of organ at 0.4 mmol/kg, ip qd for 5 days
Format: organism-based
Assay conditions: in vivo, 120 h
Expressed in µg/g, but write only the number.

Any idea what its Activity is? The compound is CC1(C)SC(C(=O)O)C(C(=O)N[C@@H](CCC(=O)O)C(=O)O)S1 (stereo not given in full)
0.77

Any idea what its Activity is? The compound is CC(C)[C@H](NC(=O)C1SC(C)(C)SC1C(=O)O)C(=O)O (stereo not given in full)
0.76

Any idea what its Activity is? The compound is CC1(C)SC(C(=O)O)C(C(=O)N[C@@H](Cc2ccccc2)C(=O)O)S1 (stereo not given in full)
0.75

Any idea what its Activity is? The compound is CC(C)C[C@H](NC(=O)C1SC(C)(C)SC1C(=O)O)C(=O)O (stereo not given in full)
0.7

Any idea what its Activity is? The compound is CC1(C)SC(C(=O)O)C(C(=O)N[C@@H](CC(N)=O)C(=O)O)S1 (stereo not given in full)
0.69

Any idea what its Activity is? The compound is CC1(C)SC(C(=O)O)C(C(=O)N[C@@H](Cc2c[nH]c3ccccc23)C(=O)O)S1 (stereo not given in full)
0.78

Any idea what its Activity is? The compound is CC1(C)SC(C(=O)O)C(C(=O)N[C@@H](CC(=O)O)C(=O)O)S1 (stereo not given in full)
0.78

Any idea what its Activity is? The compound is CC1(C)SC(C(=O)O)C(C(=O)O)S1 (stereo not given)
0.7

Any idea what its Activity is? The compound is CC1(C)SC(C(=O)O)C(C(=O)N[C@@H](CO)C(=O)O)S1 (stereo not given in full)
0.78

Any idea what its Activity is? The compound is CSCC[C@H](NC(=O)C1SC(C)(C)SC1C(=O)O)C(=O)O (stereo not given in full)
0.73

----------
Provide the reported Activity of each item.
Test system: Brain
Experiment notes: Toxicity in mouse assessed as effect on copper level in brain per gram of organ at 0.4 mmol/kg, ip qd for 5 days
Format: organism-based
Assay conditions: in vivo, 120 h
Expressed in µg/g, but write only the number.

Any idea what its Activity is? The molecule is CC1(C)SC(C(=O)O)C(C(=O)O)S1 (stereo not drawn)
2.42

Any idea what its Activity is? The molecule is CC1(C)SC(C(=O)O)C(C(=O)N[C@@H](CCC(=O)O)C(=O)O)S1 (stereo partly drawn)
2.5

Any idea what its Activity is? The molecule is CC1(C)SC(C(=O)O)C(C(=O)N[C@@H](Cc2ccccc2)C(=O)O)S1 (stereo partly drawn)
2.59

Any idea what its Activity is? The molecule is CC1(C)SC(C(=O)O)C(C(=O)N[C@@H](CC(=O)O)C(=O)O)S1 (stereo partly drawn)
2.4

Any idea what its Activity is? The molecule is CC1(C)SC(C(=O)O)C(C(=O)N[C@@H](CCC(N)=O)C(=O)O)S1 (stereo partly drawn)
2.64

Any idea what its Activity is? The molecule is CC[C@H](C)[C@H](NC(=O)C1SC(C)(C)SC1C(=O)O)C(=O)O (stereo partly drawn)
2.48

Any idea what its Activity is? The molecule is CC1(C)SC(C(=O)O)C(C(=O)N[C@@H](CC(N)=O)C(=O)O)S1 (stereo partly drawn)
2.58

Any idea what its Activity is? The molecule is CC1(C)SC(C(=O)O)C(C(=O)N[C@@H](Cc2c[nH]c3ccccc23)C(=O)O)S1 (stereo partly drawn)
2.39

Any idea what its Activity is? The molecule is CC1(C)SC(C(=O)O)C(C(=O)NCC(=O)O)S1 (stereo not drawn)
2.5

Any idea what its Activity is? The molecule is CC1(C)SC(C(=O)O)C(C(=O)N[C@@H](CO)C(=O)O)S1 (stereo partly drawn)
2.39

Any idea what its Activity is? The molecule is CSCC[C@H](NC(=O)C1SC(C)(C)SC1C(=O)O)C(=O)O (stereo partly drawn)
2.41

Any idea what its Activity is? The molecule is CC(C)C[C@H](NC(=O)C1SC(C)(C)SC1C(=O)O)C(=O)O (stereo partly drawn)
2.6

Any idea what its Activity is? The molecule is CC(C)[C@H](NC(=O)C1SC(C)(C)SC1C(=O)O)C(=O)O (stereo partly drawn)
2.55

----------
Provide the reported Activity of each item.
Test system: Mus musculus
Experiment notes: Toxicity in mouse assessed as change in bodyweight at 0.4 mmol/kg, ip qd for 5 days
Assay type: organism-based
Assay conditions: in vivo, 120 h
Expressed in g, but write only the number.

Lab note: need Activity with Mus musculus for entry CC1(C)SC(C(=O)O)C(C(=O)NCC(=O)O)S1 (stereo not drawn) , please look it up.
30.4

Lab note: need Activity with Mus musculus for entry CC(C)C[C@H](NC(=O)C1SC(C)(C)SC1C(=O)O)C(=O)O (stereo partly drawn) , please look it up.
29.7

Lab note: need Activity with Mus musculus for entry CC1(C)SC(C(=O)O)C(C(=O)N[C@@H](CC(N)=O)C(=O)O)S1 (stereo partly drawn) , please look it up.
31.3

Lab note: need Activity with Mus musculus for entry CC1(C)SC(C(=O)O)C(C(=O)N[C@@H](CCC(=O)O)C(=O)O)S1 (stereo partly drawn) , please look it up.
30.5

Lab note: need Activity with Mus musculus for entry CC1(C)SC(C(=O)O)C(C(=O)N[C@@H](CCC(N)=O)C(=O)O)S1 (stereo partly drawn) , please look it up.
29.6

Lab note: need Activity with Mus musculus for entry CC1(C)SC(C(=O)O)C(C(=O)N[C@@H](CC(=O)O)C(=O)O)S1 (stereo partly drawn) , please look it up.
31.1

Lab note: need Activity with Mus musculus for entry CC1(C)SC(C(=O)O)C(C(=O)N[C@@H](Cc2c[nH]c3ccccc23)C(=O)O)S1 (stereo partly drawn) , please look it up.
30.8

Lab note: need Activity with Mus musculus for entry CC1(C)SC(C(=O)O)C(C(=O)N[C@@H](CO)C(=O)O)S1 (stereo partly drawn) , please look it up.
31.5

Lab note: need Activity with Mus musculus for entry CC[C@H](C)[C@H](NC(=O)C1SC(C)(C)SC1C(=O)O)C(=O)O (stereo partly drawn) , please look it up.
30.6

Lab note: need Activity with Mus musculus for entry CC1(C)SC(C(=O)O)C(C(=O)O)S1 (stereo not drawn) , please look it up.
29

Lab note: need Activity with Mus musculus for entry CC(C)[C@H](NC(=O)C1SC(C)(C)SC1C(=O)O)C(=O)O (stereo partly drawn) , please look it up.
29.9

Lab note: need Activity with Mus musculus for entry CSCC[C@H](NC(=O)C1SC(C)(C)SC1C(=O)O)C(=O)O (stereo partly drawn) , please look it up.
30

Lab note: need Activity with Mus musculus for entry CC1(C)SC(C(=O)O)C(C(=O)N[C@@H](Cc2ccccc2)C(=O)O)S1 (stereo partly drawn) , please look it up.
29.9

----------
Tested on: Brain
Experiment notes: Toxicity in mouse assessed as effect on iron level in brain per gram of organ at 0.4 mmol/kg, ip qd for 5 days
Type: organism-based
Assay conditions: in vivo, 120 h
Readout type: Activity (µg/g)
Expressed in µg/g, but write only the number.

Any idea what its Activity is? The compound is CC1(C)SC(C(=O)O)C(C(=O)N[C@@H](CC(N)=O)C(=O)O)S1 (stereo not given in full)
57.5

Any idea what its Activity is? The compound is CC1(C)SC(C(=O)O)C(C(=O)N[C@@H](CO)C(=O)O)S1 (stereo not given in full)
56.47

Any idea what its Activity is? The compound is CC(C)[C@H](NC(=O)C1SC(C)(C)SC1C(=O)O)C(=O)O (stereo not given in full)
57.35

Any idea what its Activity is? The compound is CC[C@H](C)[C@H](NC(=O)C1SC(C)(C)SC1C(=O)O)C(=O)O (stereo not given in full)
56.49

Any idea what its Activity is? The compound is CC1(C)SC(C(=O)O)C(C(=O)N[C@@H](CCC(=O)O)C(=O)O)S1 (stereo not given in full)
57.57

Every entry's value here was drawn from ChEMBL document CHEMBL1681713.
